From: BigSolDB 2.1

MEASUREMENT_CONDITIONS: in acetone, 310.65 K
VALUE_KIND: solubility (mole fraction)

MOLECULE	EXPERIMENTAL_RESULT
CC(C)(C)C(O)(CCc1ccc(Cl)cc1)Cn1cncn1 (stereo unspecified)	0.101

* * *

MEASUREMENT_CONDITIONS: in toluene, 308.15 K

MOLECULE	solubility (mole fraction)
CC(C)(C)C(O)(CCc1ccc(Cl)cc1)Cn1cncn1 (stereo unspecified)	0.0873

* * *

MEASUREMENT_CONDITIONS: in 2-butanone, 300.65 K
VALUE_KIND: solubility (mole fraction)

COMPOUND	VALUE_KIND	EXPERIMENTAL_RESULT
CC(C)(C)C(O)(CCc1ccc(Cl)cc1)Cn1cncn1 (stereo unspecified)	solubility (mole fraction)	0.0815

* * *

MEASUREMENT_CONDITIONS: in ethanol, 305.65 K

MOLECULE	solubility (mole fraction)
CC(C)(C)C(O)(CCc1ccc(Cl)cc1)Cn1cncn1 (stereo unspecified)	0.0411

* * *

MEASUREMENT_CONDITIONS: in ethyl acetate, 278.15 K
VALUE_KIND: solubility (mole fraction)

COMPOUND	EXPERIMENTAL_RESULT
CC(C)(C)C(O)(CCc1ccc(Cl)cc1)Cn1cncn1 (stereo unspecified)	0.0244

* * *

MEASUREMENT_CONDITIONS: in 2-butanone, 285.65 K
VALUE_KIND: solubility (mole fraction)

MOLECULE	VALUE_KIND	EXPERIMENTAL_RESULT
CC(C)(C)C(O)(CCc1ccc(Cl)cc1)Cn1cncn1 (stereo unspecified)	solubility (mole fraction)	0.0524

* * *

MEASUREMENT_CONDITIONS: in acetone, 303.15 K

COMPOUND	solubility (mole fraction)
CC(C)(C)C(O)(CCc1ccc(Cl)cc1)Cn1cncn1 (stereo unspecified)	0.0789

* * *

MEASUREMENT_CONDITIONS: in 2-butanone, 305.65 K

COMPOUND	solubility (mole fraction)
CC(C)(C)C(O)(CCc1ccc(Cl)cc1)Cn1cncn1 (stereo unspecified)	0.0928

* * *

MEASUREMENT_CONDITIONS: in n-propanol, 278.15 K
VALUE_KIND: solubility (mole fraction)

COMPOUND	EXPERIMENTAL_RESULT
CC(C)(C)C(O)(CCc1ccc(Cl)cc1)Cn1cncn1 (stereo unspecified)	0.00704

* * *

MEASUREMENT_CONDITIONS: in n-propanol, 300.65 K

COMPOUND	solubility (mole fraction)
CC(C)(C)C(O)(CCc1ccc(Cl)cc1)Cn1cncn1 (stereo unspecified)	0.0258

* * *

MEASUREMENT_CONDITIONS: in ethyl acetate, 308.15 K
VALUE_KIND: solubility (mole fraction)

COMPOUND	EXPERIMENTAL_RESULT
CC(C)(C)C(O)(CCc1ccc(Cl)cc1)Cn1cncn1 (stereo unspecified)	0.0797

* * *

MEASUREMENT_CONDITIONS: in n-propanol, 310.65 K

COMPOUND	solubility (mole fraction)
CC(C)(C)C(O)(CCc1ccc(Cl)cc1)Cn1cncn1 (stereo unspecified)	0.0444

* * *

MEASUREMENT_CONDITIONS: in ethanol, 278.15 K

MOLECULE	solubility (mole fraction)
CC(C)(C)C(O)(CCc1ccc(Cl)cc1)Cn1cncn1 (stereo unspecified)	0.0103

* * *

MEASUREMENT_CONDITIONS: in n-propanol, 288.15 K

MOLECULE	solubility (mole fraction)
CC(C)(C)C(O)(CCc1ccc(Cl)cc1)Cn1cncn1 (stereo unspecified)	0.0133

* * *

MEASUREMENT_CONDITIONS: in ethanol, 303.15 K
VALUE_KIND: solubility (mole fraction)

COMPOUND	EXPERIMENTAL_RESULT
CC(C)(C)C(O)(CCc1ccc(Cl)cc1)Cn1cncn1 (stereo unspecified)	0.037

* * *

MEASUREMENT_CONDITIONS: in 2-butanone, 293.15 K

COMPOUND	solubility (mole fraction)
CC(C)(C)C(O)(CCc1ccc(Cl)cc1)Cn1cncn1 (stereo unspecified)	0.0659

* * *

MEASUREMENT_CONDITIONS: in ethanol, 285.65 K

COMPOUND	solubility (mole fraction)
CC(C)(C)C(O)(CCc1ccc(Cl)cc1)Cn1cncn1 (stereo unspecified)	0.0157

* * *

MEASUREMENT_CONDITIONS: in n-propanol, 308.15 K

COMPOUND	solubility (mole fraction)
CC(C)(C)C(O)(CCc1ccc(Cl)cc1)Cn1cncn1 (stereo unspecified)	0.0388

* * *

MEASUREMENT_CONDITIONS: in ethanol, 298.15 K

COMPOUND	solubility (mole fraction)
CC(C)(C)C(O)(CCc1ccc(Cl)cc1)Cn1cncn1 (stereo unspecified)	0.0299

* * *

MEASUREMENT_CONDITIONS: in acetonitrile, 305.65 K
VALUE_KIND: solubility (mole fraction)

COMPOUND	EXPERIMENTAL_RESULT
CC(C)(C)C(O)(CCc1ccc(Cl)cc1)Cn1cncn1 (stereo unspecified)	0.0186

* * *

MEASUREMENT_CONDITIONS: in acetonitrile, 303.15 K

COMPOUND	solubility (mole fraction)
CC(C)(C)C(O)(CCc1ccc(Cl)cc1)Cn1cncn1 (stereo unspecified)	0.0165

* * *

MEASUREMENT_CONDITIONS: in ethanol, 280.65 K

COMPOUND	solubility (mole fraction)
CC(C)(C)C(O)(CCc1ccc(Cl)cc1)Cn1cncn1 (stereo unspecified)	0.0118

* * *

MEASUREMENT_CONDITIONS: in isopropanol, 305.65 K

COMPOUND	solubility (mole fraction)
CC(C)(C)C(O)(CCc1ccc(Cl)cc1)Cn1cncn1 (stereo unspecified)	0.0367

* * *

MEASUREMENT_CONDITIONS: in acetonitrile, 298.15 K

COMPOUND	solubility (mole fraction)
CC(C)(C)C(O)(CCc1ccc(Cl)cc1)Cn1cncn1 (stereo unspecified)	0.0134

* * *

MEASUREMENT_CONDITIONS: in toluene, 298.15 K
VALUE_KIND: solubility (mole fraction)

COMPOUND	EXPERIMENTAL_RESULT
CC(C)(C)C(O)(CCc1ccc(Cl)cc1)Cn1cncn1 (stereo unspecified)	0.0578

* * *

MEASUREMENT_CONDITIONS: in ethyl acetate, 313.15 K

MOLECULE	solubility (mole fraction)
CC(C)(C)C(O)(CCc1ccc(Cl)cc1)Cn1cncn1 (stereo unspecified)	0.0945

* * *

MEASUREMENT_CONDITIONS: in ethanol, 295.65 K
VALUE_KIND: solubility (mole fraction)

MOLECULE	VALUE_KIND	EXPERIMENTAL_RESULT
CC(C)(C)C(O)(CCc1ccc(Cl)cc1)Cn1cncn1 (stereo unspecified)	solubility (mole fraction)	0.0264

* * *

MEASUREMENT_CONDITIONS: in toluene, 293.15 K

COMPOUND	solubility (mole fraction)
CC(C)(C)C(O)(CCc1ccc(Cl)cc1)Cn1cncn1 (stereo unspecified)	0.0453

* * *

MEASUREMENT_CONDITIONS: in methanol, 285.65 K
VALUE_KIND: solubility (mole fraction)

COMPOUND	EXPERIMENTAL_RESULT
CC(C)(C)C(O)(CCc1ccc(Cl)cc1)Cn1cncn1 (stereo unspecified)	0.0225

* * *

MEASUREMENT_CONDITIONS: in toluene, 305.65 K
VALUE_KIND: solubility (mole fraction)

MOLECULE	EXPERIMENTAL_RESULT
CC(C)(C)C(O)(CCc1ccc(Cl)cc1)Cn1cncn1 (stereo unspecified)	0.079

* * *

MEASUREMENT_CONDITIONS: in toluene, 283.15 K
VALUE_KIND: solubility (mole fraction)

COMPOUND	VALUE_KIND	EXPERIMENTAL_RESULT
CC(C)(C)C(O)(CCc1ccc(Cl)cc1)Cn1cncn1 (stereo unspecified)	solubility (mole fraction)	0.0276

* * *

MEASUREMENT_CONDITIONS: in acetone, 290.65 K

COMPOUND	solubility (mole fraction)
CC(C)(C)C(O)(CCc1ccc(Cl)cc1)Cn1cncn1 (stereo unspecified)	0.0507

* * *

MEASUREMENT_CONDITIONS: in acetone, 298.15 K
VALUE_KIND: solubility (mole fraction)

COMPOUND	EXPERIMENTAL_RESULT
CC(C)(C)C(O)(CCc1ccc(Cl)cc1)Cn1cncn1 (stereo unspecified)	0.0668

* * *

MEASUREMENT_CONDITIONS: in toluene, 295.65 K
VALUE_KIND: solubility (mole fraction)

COMPOUND	EXPERIMENTAL_RESULT
CC(C)(C)C(O)(CCc1ccc(Cl)cc1)Cn1cncn1 (stereo unspecified)	0.0512

* * *

MEASUREMENT_CONDITIONS: in methanol, 288.15 K

COMPOUND	solubility (mole fraction)
CC(C)(C)C(O)(CCc1ccc(Cl)cc1)Cn1cncn1 (stereo unspecified)	0.0253

* * *

MEASUREMENT_CONDITIONS: in n-propanol, 285.65 K
VALUE_KIND: solubility (mole fraction)

COMPOUND	VALUE_KIND	EXPERIMENTAL_RESULT
CC(C)(C)C(O)(CCc1ccc(Cl)cc1)Cn1cncn1 (stereo unspecified)	solubility (mole fraction)	0.0112
